assay: in vivo; conditions: male, dog, po, 1000 mg/kg
Endpoint Name: half-life

Input line: // lookup half-life for `COc1cc2c(Nc3ccc(Cl)c(Cl)c3F)ncnc2cc1OC[C@@H]1C[C@@H]2CN(C)C[C@@H]2C1`
Output line: 792 min

---

target: p-Y-HER2/ErbB2 (Homo sapiens); construct: endogenous in cells; assay: In vivo receptor phosphorylation, BT474 xenografts; conditions: in vivo, Phospho, read-out: Estimated IC50 (plasma concentration)
Sequence (P04626 23-1255): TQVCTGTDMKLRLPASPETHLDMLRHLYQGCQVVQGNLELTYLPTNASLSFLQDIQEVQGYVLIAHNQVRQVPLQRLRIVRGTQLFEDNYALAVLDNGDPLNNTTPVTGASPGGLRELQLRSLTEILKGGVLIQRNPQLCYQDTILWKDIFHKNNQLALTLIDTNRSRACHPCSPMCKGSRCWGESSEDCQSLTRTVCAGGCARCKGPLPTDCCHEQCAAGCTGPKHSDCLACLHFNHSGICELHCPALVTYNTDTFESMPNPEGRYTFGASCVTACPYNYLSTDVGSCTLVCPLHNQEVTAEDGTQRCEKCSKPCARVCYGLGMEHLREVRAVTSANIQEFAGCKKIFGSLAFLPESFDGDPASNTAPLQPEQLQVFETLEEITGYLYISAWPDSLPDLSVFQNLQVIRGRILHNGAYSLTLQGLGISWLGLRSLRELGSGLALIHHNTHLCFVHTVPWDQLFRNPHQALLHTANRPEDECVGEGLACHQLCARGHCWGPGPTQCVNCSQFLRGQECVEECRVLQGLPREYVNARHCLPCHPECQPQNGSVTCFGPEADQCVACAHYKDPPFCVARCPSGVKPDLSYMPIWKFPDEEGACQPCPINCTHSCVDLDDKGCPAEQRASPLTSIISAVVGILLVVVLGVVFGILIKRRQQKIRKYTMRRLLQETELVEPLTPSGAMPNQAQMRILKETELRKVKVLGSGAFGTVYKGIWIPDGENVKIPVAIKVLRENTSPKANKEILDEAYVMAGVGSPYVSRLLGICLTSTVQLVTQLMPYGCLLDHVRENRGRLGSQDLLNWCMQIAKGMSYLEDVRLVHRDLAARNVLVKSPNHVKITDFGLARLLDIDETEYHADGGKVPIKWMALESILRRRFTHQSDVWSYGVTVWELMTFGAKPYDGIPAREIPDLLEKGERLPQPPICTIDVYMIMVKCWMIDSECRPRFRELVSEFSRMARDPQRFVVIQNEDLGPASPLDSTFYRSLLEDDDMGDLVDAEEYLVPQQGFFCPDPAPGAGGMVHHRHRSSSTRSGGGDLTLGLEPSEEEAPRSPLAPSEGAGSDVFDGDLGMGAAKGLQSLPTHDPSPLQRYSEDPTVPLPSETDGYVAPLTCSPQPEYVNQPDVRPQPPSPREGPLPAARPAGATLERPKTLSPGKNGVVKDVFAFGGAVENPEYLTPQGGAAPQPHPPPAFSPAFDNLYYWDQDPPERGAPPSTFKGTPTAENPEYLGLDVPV
Endpoint Name: pIC50
Give bare numbers, as −log10 of the molar value.

Input line: # value lookup — system p-Y-HER2/ErbB2 (Homo sapiens), readout pIC50, item `COc1cc2c(Nc3ccc(Cl)c(Cl)c3F)ncnc2cc1OC[C@@H]1C[C@@H]2CN(C)C[C@@H]2C1`
Output line: 5.44
